These data points were gathered from the supplement of paper PMC3545927.

molecular target: furin, P09958; experiment: furin cleavage Z-score vs untreated control; higher = more cleavage, active = 3.5 or more, inactive = 1 or less, 8 variable residues between constant flanks; settings: 15 min;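 also: purified furin at 1:10 enzyme:substrate in 50 mM HEPES pH 7.5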
Sequence (P09958 whole entry): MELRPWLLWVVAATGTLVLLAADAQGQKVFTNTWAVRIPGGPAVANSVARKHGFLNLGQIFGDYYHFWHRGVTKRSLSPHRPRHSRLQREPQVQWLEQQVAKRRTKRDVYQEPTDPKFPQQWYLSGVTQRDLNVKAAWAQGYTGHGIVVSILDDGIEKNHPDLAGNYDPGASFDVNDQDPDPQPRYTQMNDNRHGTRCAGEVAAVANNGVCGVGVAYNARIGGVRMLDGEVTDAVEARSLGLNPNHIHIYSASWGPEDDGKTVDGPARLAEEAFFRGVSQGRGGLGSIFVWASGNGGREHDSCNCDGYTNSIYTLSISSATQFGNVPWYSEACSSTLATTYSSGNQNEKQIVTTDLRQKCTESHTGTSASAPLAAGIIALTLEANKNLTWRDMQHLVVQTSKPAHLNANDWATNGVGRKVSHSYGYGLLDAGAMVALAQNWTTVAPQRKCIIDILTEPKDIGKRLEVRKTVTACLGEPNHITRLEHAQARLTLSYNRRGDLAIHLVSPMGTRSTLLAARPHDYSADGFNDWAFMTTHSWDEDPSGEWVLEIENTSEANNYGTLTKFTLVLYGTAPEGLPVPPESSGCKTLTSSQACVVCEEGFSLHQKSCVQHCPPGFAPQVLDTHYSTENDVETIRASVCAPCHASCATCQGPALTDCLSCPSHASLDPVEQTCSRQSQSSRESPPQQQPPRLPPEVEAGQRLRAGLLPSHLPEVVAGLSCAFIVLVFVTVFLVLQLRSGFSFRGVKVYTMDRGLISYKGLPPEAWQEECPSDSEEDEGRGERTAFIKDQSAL
Some of the results follow. How many sequences the whole screen found active is unknown.
furin cleavage Z-score of 5 or higher: 1. Under 5: 0.

{"residue-codes": "CARRKRQVRRAGNASASA [FS-2370]", "label-value": 1}
{"residue-codes": "CAVVCRSMSYAGNASASA [HC90]", "label-value": 0}
{"residue-codes": "CALPKRVRRQAGNASASA [FS-1029]", "label-value": 1}
{"residue-codes": "CAPEMEECSQAGNASASA [HC1799]", "label-value": 0}
{"residue-codes": "CARRKRDLDGAGNASASA [FS-3052]", "label-value": 1}
{"residue-codes": "CACSTRVRRQAGNASASA [FS-120]", "label-value": 1}
{"residue-codes": "CANRARFRRAAGNASASA [FS-64]", "label-value": 1}
{"residue-codes": "CARRKKSQDGAGNASASA [FS-1775]", "label-value": 0}
{"residue-codes": "CAVPYFVRVQAGNASASA [HC615]", "label-value": 0}
{"residue-codes": "CAFSHRQVRYAGNASASA [FS-929]", "label-value": 0}
